Entries and their IC50
# TARGET UNDER TEST: human recombinant PDE4 (Homo sapiens)
# Construct: made in house; host or cells: Saccharomyces cerevisiae BJ2-54
# Sequence (Q07343 whole entry): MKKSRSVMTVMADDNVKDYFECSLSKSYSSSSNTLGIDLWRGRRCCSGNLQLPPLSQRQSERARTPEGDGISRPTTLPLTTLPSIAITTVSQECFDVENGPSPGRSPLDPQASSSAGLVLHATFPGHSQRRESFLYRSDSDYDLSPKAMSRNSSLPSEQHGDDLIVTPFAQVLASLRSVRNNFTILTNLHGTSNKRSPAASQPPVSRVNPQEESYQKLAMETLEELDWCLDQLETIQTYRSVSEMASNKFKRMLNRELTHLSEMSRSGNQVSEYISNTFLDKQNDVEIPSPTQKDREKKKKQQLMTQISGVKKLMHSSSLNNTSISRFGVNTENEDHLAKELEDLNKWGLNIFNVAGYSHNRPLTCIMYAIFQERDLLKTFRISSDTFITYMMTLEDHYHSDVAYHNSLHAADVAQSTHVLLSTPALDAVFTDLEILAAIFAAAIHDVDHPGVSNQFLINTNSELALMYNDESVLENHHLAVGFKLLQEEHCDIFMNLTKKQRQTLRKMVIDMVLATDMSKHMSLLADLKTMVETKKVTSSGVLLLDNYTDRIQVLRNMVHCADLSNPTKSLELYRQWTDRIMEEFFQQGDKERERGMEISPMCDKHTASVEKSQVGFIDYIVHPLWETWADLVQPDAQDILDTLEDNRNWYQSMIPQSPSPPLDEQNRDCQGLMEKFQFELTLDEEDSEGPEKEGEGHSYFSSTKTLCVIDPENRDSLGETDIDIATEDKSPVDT
# PROTOCOL SUMMARY: Inhibition of human recombinant PDE4 (charcoal separation PDE assay)
# Format: biochemical
# EXPERIMENTAL PARAMETERS: structure table, read-out: PDE4 IC50
Lab note: write values as number then unit, every time.

MOL SMILES: CCOC(=O)c1c(C)nn(-c2ccc(NC(=O)C(C)(C)C)cc2)c1C
IC50: 6.39 µM

Need IC50, item CCOC(=O)c1c(C)nn(-c2ccccc2N)c1C
1.13 µM

----------
# TARGET UNDER TEST: PDE5 (Homo sapiens)
EXPERIMENTAL ENDPOINT: IC50 (µM)
Only the number, expressed in µM, is required.

Give recorded IC50 with PDE5 (Homo sapiens) for the following compound: CCOC(=O)c1c(C)nn(-c2cccc([N+](=O)[O-])c2)c1C [Example 2]
25.6

----------
Entries and their IC50
# TARGET UNDER TEST: human recombinant PDE4 (Homo sapiens)
# Construct: made in house; host or cells: Saccharomyces cerevisiae BJ2-54
# PROTOCOL SUMMARY: Inhibition of human recombinant PDE4 (charcoal separation PDE assay)
# Type: biochemical
# EXPERIMENTAL PARAMETERS: PDE4 IC50 (μM), structure table

MOL SMILES: CCOC(=O)c1c(C)nn(-c2ccc(N=Cc3ccc(OC)cc3)cc2)c1C
TARGET UNDER TEST: human recombinant PDE4 (Homo sapiens)
OBSERVED: 0.69 µM
//
MOL SMILES: CCOC(=O)c1c(C)nn(-c2ccc(N=Cc3ccccc3O)cc2)c1C
TARGET UNDER TEST: human recombinant PDE4 (Homo sapiens)
OBSERVED: 0.4 µM
//
MOL SMILES: CCOC(=O)c1c(C)nn(-c2ccc(NCc3ccccc3O)cc2)c1C
TARGET UNDER TEST: human recombinant PDE4 (Homo sapiens)
OBSERVED: 0.92 µM

Okay, next one:
Need IC50, item CCOC(=O)c1c(C)nn(-c2ccc(NS(=O)(=O)c3ccc(OC)cc3)cc2)c1C
1.88 µM

----------
# TARGET UNDER TEST: PDE7 (Homo sapiens)
# Sequence (Q13946 whole entry): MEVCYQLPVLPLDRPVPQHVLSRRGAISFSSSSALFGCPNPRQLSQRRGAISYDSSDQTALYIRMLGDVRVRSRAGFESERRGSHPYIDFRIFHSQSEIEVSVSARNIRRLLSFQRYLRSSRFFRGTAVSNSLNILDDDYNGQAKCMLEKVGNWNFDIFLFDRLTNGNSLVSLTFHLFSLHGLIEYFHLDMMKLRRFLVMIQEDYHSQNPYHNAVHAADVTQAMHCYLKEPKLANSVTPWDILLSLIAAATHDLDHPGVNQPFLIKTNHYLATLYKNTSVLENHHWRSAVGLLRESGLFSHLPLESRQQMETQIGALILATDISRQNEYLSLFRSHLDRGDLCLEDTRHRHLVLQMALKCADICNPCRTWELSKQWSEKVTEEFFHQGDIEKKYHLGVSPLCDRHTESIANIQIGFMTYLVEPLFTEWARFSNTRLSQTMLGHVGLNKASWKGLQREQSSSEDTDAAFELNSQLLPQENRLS
EXPERIMENTAL ENDPOINT: IC50 (µM)
Only the number, expressed in µM, is required.

Give recorded IC50 with PDE7 (Homo sapiens) for the following molecule: CCOC(=O)c1c(C)nn(-c2cccc([N+](=O)[O-])c2)c1C
39

----------
# TARGET UNDER TEST: PDE1C (Homo sapiens, UniProt Q14123)
EXPERIMENTAL ENDPOINT: pIC50
Please express pIC50 as -log10 of the molar concentration.

Give recorded pIC50 with PDE1C (Homo sapiens, UniProt Q14123) for the following compound: CCOC(=O)c1c(C)nn(-c2cccc([N+](=O)[O-])c2)c1C
4.52

----------
# TARGET UNDER TEST: human recombinant PDE4 (Homo sapiens)
# Construct: made in house; host or cells: Saccharomyces cerevisiae BJ2-54
# PROTOCOL SUMMARY: Inhibition of human recombinant PDE4 (charcoal separation PDE assay)
# Type: biochemical
# EXPERIMENTAL PARAMETERS: structure table, read-out: PDE4 IC50
// boundary case: IC50 equal to 20 µM maps to rule not met; strictly smaller maps to rule met

COMPOUND: CCOC(=O)c1cnn(-c2c(Cl)cc(Cl)cc2Cl)c1COC [Example 35]
LABEL CLASS: rule not met

COMPOUND: COC(=O)c1cnn(-c2cc(C(F)(F)F)cc(C)n2)c1C(C)=O [Example 33]
LABEL CLASS: rule not met

COMPOUND: CCOC(=O)c1c(C)nn(-c2cccc(N)c2)c1C [Example 9]
LABEL CLASS: rule met

hey, is IC50 for CCOC(=O)c1c(C)nn(-c2ccc(N)cc2)c1C [Example 11] lower than 20 µM or not?
rule met
